target: T1, Recombinant human CD4 (R&D Systems, Cat. 10327-CD) (human, UniProt P01730 26-390, limits assumed); assay: BLI (Octet Red384), non-clonal supernatant on AMC sensor, 100 nM human CD4, 1:1 local fit;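 note: hybridoma antibodies captured from supernatant, single CD4 concentration as analyte, association and dissociation phases fitted together, giving single-point kinetic estimates per supernatant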
T1 construct: Bought soluble recombinant protein used as analyte at 100 nM; also called huCD4
ATTRIBUTE MEASURED: pKd
pKd (log units): -log10 of the concentration in mol/L.

75110_02E22A (antibody, V domains shown, Non-clonal AlivaMab Mouse Kappa hybridoma supernatant, captured by anti-mouse IgG Fc (human V regions, mouse Fc)) VH: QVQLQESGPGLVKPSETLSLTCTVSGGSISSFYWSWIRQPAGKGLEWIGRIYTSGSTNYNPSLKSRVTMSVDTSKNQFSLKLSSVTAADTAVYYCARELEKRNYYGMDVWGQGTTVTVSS VL: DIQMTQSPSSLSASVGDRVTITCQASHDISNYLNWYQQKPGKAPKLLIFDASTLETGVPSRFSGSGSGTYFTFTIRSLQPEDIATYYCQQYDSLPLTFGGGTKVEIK : 7.70
75110_06C16A (antibody, V domains shown, Non-clonal AlivaMab Mouse Kappa hybridoma supernatant, captured by anti-mouse IgG Fc (human V regions, mouse Fc)) VH: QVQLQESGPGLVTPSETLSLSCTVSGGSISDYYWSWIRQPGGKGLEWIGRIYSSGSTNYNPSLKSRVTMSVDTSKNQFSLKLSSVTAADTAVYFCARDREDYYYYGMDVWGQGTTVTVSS VL: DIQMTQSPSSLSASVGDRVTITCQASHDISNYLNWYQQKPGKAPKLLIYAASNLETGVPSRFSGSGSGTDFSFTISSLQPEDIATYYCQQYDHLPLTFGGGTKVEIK : 8.01
75110_08K12A (antibody, V domains shown, Non-clonal AlivaMab Mouse Kappa hybridoma supernatant, captured by anti-mouse IgG Fc (human V regions, mouse Fc)) VH: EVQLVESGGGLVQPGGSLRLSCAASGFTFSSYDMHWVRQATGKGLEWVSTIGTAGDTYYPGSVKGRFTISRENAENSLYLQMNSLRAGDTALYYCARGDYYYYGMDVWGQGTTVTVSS VL: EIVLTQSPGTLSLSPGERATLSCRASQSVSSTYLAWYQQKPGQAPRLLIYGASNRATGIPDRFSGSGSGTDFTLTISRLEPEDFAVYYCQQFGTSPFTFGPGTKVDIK : 8.35
75110_05E05A (antibody, V domains shown, Non-clonal AlivaMab Mouse Kappa hybridoma supernatant, captured by anti-mouse IgG Fc (human V regions, mouse Fc)) VH: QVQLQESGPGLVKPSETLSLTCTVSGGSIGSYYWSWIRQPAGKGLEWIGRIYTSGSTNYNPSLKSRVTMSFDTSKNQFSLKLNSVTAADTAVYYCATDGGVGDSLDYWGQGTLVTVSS VL: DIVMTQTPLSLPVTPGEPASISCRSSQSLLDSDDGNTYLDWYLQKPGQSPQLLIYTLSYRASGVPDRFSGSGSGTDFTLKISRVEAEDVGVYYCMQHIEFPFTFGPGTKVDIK : 9.02
75110_08F20A (antibody, V domains shown, Non-clonal AlivaMab Mouse Kappa hybridoma supernatant, captured by anti-mouse IgG Fc (human V regions, mouse Fc)) VH: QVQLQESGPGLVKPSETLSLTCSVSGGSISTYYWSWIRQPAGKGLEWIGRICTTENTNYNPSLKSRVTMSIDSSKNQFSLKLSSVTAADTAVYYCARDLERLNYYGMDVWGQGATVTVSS VL: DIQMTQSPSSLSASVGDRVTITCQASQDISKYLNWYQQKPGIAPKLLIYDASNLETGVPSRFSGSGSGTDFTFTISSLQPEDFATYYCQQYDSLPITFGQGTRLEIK : 8.72
75110_07J02A (antibody, V domains shown, Non-clonal AlivaMab Mouse Kappa hybridoma supernatant, captured by anti-mouse IgG Fc (human V regions, mouse Fc)) VH: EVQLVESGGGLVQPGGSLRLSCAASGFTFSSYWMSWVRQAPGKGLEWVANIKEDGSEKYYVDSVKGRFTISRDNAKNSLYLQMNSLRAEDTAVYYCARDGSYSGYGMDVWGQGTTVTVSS VL: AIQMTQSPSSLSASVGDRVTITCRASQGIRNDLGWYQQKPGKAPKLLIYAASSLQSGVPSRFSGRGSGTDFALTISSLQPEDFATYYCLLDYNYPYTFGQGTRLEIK : 9.25

// 75110_08D24A (antibody, V domains shown, Non-clonal AlivaMab Mouse Kappa hybridoma supernatant, captured by anti-mouse IgG Fc (human V regions, mouse Fc)) VH: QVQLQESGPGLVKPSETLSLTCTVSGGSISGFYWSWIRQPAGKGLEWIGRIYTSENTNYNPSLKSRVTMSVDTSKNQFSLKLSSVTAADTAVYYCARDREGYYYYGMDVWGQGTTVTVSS VL: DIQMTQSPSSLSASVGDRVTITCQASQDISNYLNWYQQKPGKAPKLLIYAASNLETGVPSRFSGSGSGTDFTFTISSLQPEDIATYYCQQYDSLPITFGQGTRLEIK : pKd value = 7.47

// 75110_05E13A (antibody, V domains shown, Non-clonal AlivaMab Mouse Kappa hybridoma supernatant, captured by anti-mouse IgG Fc (human V regions, mouse Fc)) VH: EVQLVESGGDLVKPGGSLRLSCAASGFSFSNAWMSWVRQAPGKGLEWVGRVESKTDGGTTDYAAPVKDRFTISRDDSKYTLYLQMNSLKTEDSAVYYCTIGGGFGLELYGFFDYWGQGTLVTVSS VL: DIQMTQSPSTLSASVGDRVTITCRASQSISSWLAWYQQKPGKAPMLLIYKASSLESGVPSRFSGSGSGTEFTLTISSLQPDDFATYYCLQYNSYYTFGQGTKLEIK : pKd value = 8.13

// 75110_08G08A (antibody, V domains shown, Non-clonal AlivaMab Mouse Kappa hybridoma supernatant, captured by anti-mouse IgG Fc (human V regions, mouse Fc)) VH: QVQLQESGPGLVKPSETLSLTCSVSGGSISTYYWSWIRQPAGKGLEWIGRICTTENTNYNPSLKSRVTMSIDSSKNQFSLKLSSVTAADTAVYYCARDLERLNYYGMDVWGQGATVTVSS VL: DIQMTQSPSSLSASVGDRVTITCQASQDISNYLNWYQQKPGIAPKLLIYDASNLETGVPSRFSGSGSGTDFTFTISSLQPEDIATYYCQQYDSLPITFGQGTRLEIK : pKd value = 8.47

// 75110_08M20A (antibody, V domains shown, Non-clonal AlivaMab Mouse Kappa hybridoma supernatant, captured by anti-mouse IgG Fc (human V regions, mouse Fc)) VH: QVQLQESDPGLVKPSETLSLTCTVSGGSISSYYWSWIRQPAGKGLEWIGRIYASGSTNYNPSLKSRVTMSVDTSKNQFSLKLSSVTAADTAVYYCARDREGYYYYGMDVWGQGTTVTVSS VL: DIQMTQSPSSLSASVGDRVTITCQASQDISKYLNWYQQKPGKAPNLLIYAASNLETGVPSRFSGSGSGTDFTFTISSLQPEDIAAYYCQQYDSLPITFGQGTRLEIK : pKd value = 8.44
